system: T1, huNav1.7α + β1-β2-β3 (human, UniProt Q15858 1-1988; A5A6L6 19-218; O60939 30-215; Q2KI11 23-215)
T1 construct: Cell line (CHO FlpIn, HEK FlpIn, transient HEK293T) is named under assay; also called huNav1.7-beta1-beta2-beta3; human Nav1.7α with Navβ1, Navβ2 and Navβ3
test-details: binding FACS, CHO FlpIn cells
EC50: recorded values
metric-name: EC50 (nM)

[[record]]
binder = "F010301880 (VHH, G54S vs F0103464B09 (Kabat)) VHH: EVQLVESGGGLVQPGGSLRLSCATTSRAFIRDVFTGWYRRVPGKERELVARIYNSGNTNYADFAKGRFSISRDNAKKMVTLRMSNLKPEDTGVYYCLFSGTINTGREYRSGDYWGQGTLVTVSS"
recorded_value = 4.9

[[record]]
binder = "F010302347 (VHH) VHH: EVQLVESGGGVVQPGGSLRLSCAASHRAFIRDVFTGWYRQAPGKQRELVARIYEGGNTQYADSAKGRFTISRDNAKKTVYLQMNSLRPEDTALYYCLFSGTISTGREYRSGDYWGQGTLVTVSS"
recorded_value = 4.6

[[record]]
binder = "F010301884 (VHH, N53A vs F0103464B09 (Kabat)) VHH: EVQLVESGGGLVQPGGSLRLSCATTSRAFIRDVFTGWYRRVPGKERELVARIYAGGNTNYADFAKGRFSISRDNAKKMVTLRMSNLKPEDTGVYYCLFSGTINTGREYRSGDYWGQGTLVTVSS"
recorded_value = 6

[[record]]
binder = "F010302335 (VHH) VHH: EVQLVESGGGVVQPGGSLRLSCAASSRQFIRDVFTGWYRRAPGKQRELVARIYESGNTQYADSAKGRFTISRDNAKKTVYLQMNSLRPEDTALYYCLFSGTISTGREYRSGDYWGQGTLVTVSS"
recorded_value = 4.1

[[record]]
binder = "F010302337 (VHH) VHH: EVQLVESGGGVVQPGGSLRLSCAASHRQFIRDVFTGWYRRAPGKQRELVARIYEGGNTQYADSAKGRFTISRDNAKKTVYLQMNSLRPEDTALYYCLFSGTISTGREYRSGDYWGQGTLVTVSS"
recorded_value = 3.9

